Tested on: LXRa homodimer (NR concentration 270 nM)
Procedure summary: PBM binding z-score (relative to random genomic background probes); higher = stronger binding; sequences stand for … in GC…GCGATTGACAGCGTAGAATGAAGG
Reported endpoint: PBM binding z-score
// return a plain number; no unit text

See these solved cases before continuing.
- Query sequence: "CCGACTGGGGCAACGTTACCATAACGCACAGCCA"
  PBM binding z-score: -0.397
- Query sequence: "CCTGCTAGGTCAATGGTCAGATAAAGCAGCTCGC"
  PBM binding z-score: 0.316

Any idea what PBM binding z-score was measured for TAGCCTAGGTCAGATCGGGCCCGTATACGCTATA ?
-0.271

Field entry: AGAACGAGGGCAATGAGTTAATAGCACGGGTGGC
-0.363

Field entry: AGAACGAGGGCACTCTGAGTTGATAGCAGAGTAG
-0.613

Field entry: GCTCGGAGGACAAGGTCTGAGCTTTGTCCGTAGA
-0.867

Field entry: TCATATAGGTAAAAGGTGAAAATCGGTGTGGTAA
0.347

Field entry: CCAGACAGGCGAAAGGTAACTCAGTCTGGTACGC
-0.885

Field entry: ATACCAAGGTGATCGTGAGGTCGTTTATACTAAC
1.35

Field entry: CGTCAAATTTCAAGGTAACGTAACAGAAAGCAGC
0.101

Field entry: CGAACGAGGGGATGAGTTGATAGCAAATGCCGAT
-0.351

Field entry: TGAATGAAGTTATAAGATCAGGGAACGTTGCAAA
-0.369

Field entry: AATACAGGGTCGTCGTAGGCCAGAGTACGCACAG
0.0247

Field entry: GCTTGTAGATCAAGGTTAAGAAGGACTAAGCTAA
-0.49

Field entry: ATATGTAGGTTGGCTGGGGTCATTCAGACTAGGC
2.01

Field entry: CGTCCAAGGTCAGAGGGGTCAGTGAATGCCGAGT
1.33
